Taken from PubChem BioAssay (NCI).

Test system: U251 CNS
Experiment: NCI tumour cell line growth inhibition, 48 h
Reported TGI values follow for various compounds

>  <compound>
Cn1cnc([N+](=O)[O-])c1Sc1nccc(=O)[nH]1

>  <TGI>
> 100 µM

$$$$
>  <compound>
CC[C@@]1(CCC(=O)NCCc2c[nH]c3ccccc23)CCC(=O)N2CCc3c([nH]c4ccccc34)[C@H]21

>  <TGI>
> 100 µM

$$$$
>  <compound>
C[C@@H](Oc1cc(-n2cnc3ccc(OC[C@@H](O)CO)cc32)sc1C(N)=O)c1ccccc1Cl

>  <TGI>
> 25 µM

$$$$
>  <compound>
C=CC1(C)OC2(CCN(C(=O)OCC)CC2)OC1C (centres undefined)

>  <TGI>
> 100 µM

$$$$

* * *

Tested on: SF-539 CNS
Experiment: NCI tumour cell line growth inhibition, 48 h
Reported TGI values follow for various compounds

>  <compound>
O=P(O)(CN1CCN(CP(=O)(O)c2ccccc2)CCN(CP(=O)(O)c2ccccc2)CC1)c1ccccc1

>  <tested-system>
SF-539 CNS

>  <TGI>
> 100 µM

$$$$
>  <compound>
NC(=O)C(=CNC(=S)Nc1cccc(C(F)(F)F)c1)C(N)=O

>  <tested-system>
SF-539 CNS

>  <TGI>
> 100 µM

$$$$
>  <compound>
CCOC(=O)CNc1nnnn1C1OC(CO)C(O)C1O (stereo unspecified)

>  <tested-system>
SF-539 CNS

>  <TGI>
> 100 µM

$$$$
>  <compound>
O=C1CC2SC(COCc3ccccc3)(CCN2Cc2ccccc2)C1 (stereo unspecified)

>  <tested-system>
SF-539 CNS

>  <TGI>
> 100 µM

$$$$
>  <compound>
CC1(C)N=C(N)N=C(N)N1c1cccc(Br)c1

>  <tested-system>
SF-539 CNS

>  <TGI>
> 100 µM

$$$$
>  <compound>
N/C(=N\S(=O)(=O)c1cc(Cl)c(Oc2ccc([N+](=O)[O-])cc2Cl)c(Cl)c1)Nc1ccc(Cl)cc1

>  <tested-system>
SF-539 CNS

>  <TGI>
34.4 µM

$$$$
>  <compound>
CCCN1CCC(c2ccc(Nc3nc(Nc4cc(F)ccc4C(N)=O)c4cc[nH]c4n3)c(OC)c2)CC1

>  <tested-system>
SF-539 CNS

>  <TGI>
6.76 µM

$$$$
>  <compound>
COC1=CC(=O)C2=C(C[C@@]3(C)C(=C2)C(CO)=CC[C@H]3O)C1=O

>  <tested-system>
SF-539 CNS

>  <TGI>
34.7 µM

$$$$
>  <compound>
C1C[OH+]CC[OH+]CCNCC[OH+]CC[OH+]CCN1.Cl.[Cl-].[Pt+4]

>  <tested-system>
SF-539 CNS

>  <TGI>
> 100 µM

$$$$
>  <compound>
Cc1ccc(S(=O)(=O)N2CCc3ccc(O)c4c3C2Cc2ccc3c(c2-4)OCO3)cc1 (stereo unspecified)

>  <tested-system>
SF-539 CNS

>  <TGI>
5.26 µM

$$$$
>  <compound>
COC(=O)C1=NN2c3ccccc3CN([C@@H](C)c3ccccc3)C(=O)[C@@H]2[C@H]1c1ccccc1

>  <tested-system>
SF-539 CNS

>  <TGI>
> 100 µM

$$$$

* * *

System: KM12 colon
Assay: NCI tumour cell line growth inhibition, 48 h

>  <molecule>
CN(C)c1ccc2nc(CC(O)(C(F)(F)F)C(F)(F)F)ccc2c1

>  <tested-system>
KM12 colon

>  <TGI>
> 10 µM

$$$$
>  <molecule>
CCCNC(=O)N1CC(CN2CCN(c3ccccc3)CC2)O/C1=N/C(=O)Nc1ccccc1 (centres undefined)

>  <tested-system>
KM12 colon

>  <TGI>
> 100 µM

$$$$
>  <molecule>
Cc1cc2nc(N3C(=O)/C(=C/c4ccc(N(C)C)cc4)N=C3c3ccccc3)sc2cc1C

>  <tested-system>
KM12 colon

>  <TGI>
> 100 µM

$$$$
>  <molecule>
COc1ccc(-c2cc(=O)c3c(O)cc(O)cc3o2)c(OC)c1OC

>  <tested-system>
KM12 colon

>  <TGI>
> 100 µM

$$$$
